Sourced from patent US20250152729A1

# assay system: T1, human SEMA4A expressed on cells (UniProt ID Q9H3S1, isoform 1) (human, UniProt Q9H3S1 33-761)
# T1 sequence: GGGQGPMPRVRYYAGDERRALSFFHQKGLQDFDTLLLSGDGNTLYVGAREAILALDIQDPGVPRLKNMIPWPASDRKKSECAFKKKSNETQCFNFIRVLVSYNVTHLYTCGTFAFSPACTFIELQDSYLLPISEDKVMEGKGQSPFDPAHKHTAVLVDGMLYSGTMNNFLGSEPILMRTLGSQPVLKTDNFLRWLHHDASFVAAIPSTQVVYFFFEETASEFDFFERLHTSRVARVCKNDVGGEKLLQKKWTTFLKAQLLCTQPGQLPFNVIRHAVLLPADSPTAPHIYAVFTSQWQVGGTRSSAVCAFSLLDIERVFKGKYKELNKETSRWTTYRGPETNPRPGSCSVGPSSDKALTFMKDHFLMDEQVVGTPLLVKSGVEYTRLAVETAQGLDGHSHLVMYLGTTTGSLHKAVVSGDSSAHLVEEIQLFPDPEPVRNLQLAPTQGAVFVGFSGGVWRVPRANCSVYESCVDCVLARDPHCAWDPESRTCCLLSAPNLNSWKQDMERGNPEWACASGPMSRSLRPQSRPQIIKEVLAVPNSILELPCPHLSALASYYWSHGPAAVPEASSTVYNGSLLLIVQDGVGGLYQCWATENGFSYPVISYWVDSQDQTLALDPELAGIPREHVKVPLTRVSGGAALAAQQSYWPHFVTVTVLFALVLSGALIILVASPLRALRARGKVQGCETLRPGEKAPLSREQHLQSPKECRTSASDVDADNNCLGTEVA
# protocol summary: cell-based or functional assay
// reported Average MM1.S IC50 [pM], cell kill per item
API: value field is a number in pM; no unit string.

Lab note: mouse 5E3 as human Alya IgG1 conjugated to McMMAF (antibody, V domains shown, McMMAF on the engineered cysteines 239iCys and S442C (EU numbering) of the heavy constant region, Antibody-drug conjugate; human IgG1 Alya constant, drug-to-antibody ratio of four; also called Mouse 5E3-McMMAF) VH: QVQLQQPGAELVMPGASVKMSCKASGYTFTDYWMHWVKQRPGQGLEWIGAIDTSDSYTSYNQKFKGKATLTVDESSSTAYMQLSSLTSEDSAVYYCARDYGNFYYYAMDYWGQGTSVTVSS VL: QAVVTQESALTTSPGETVTLTCRSSTGAVTTSNYANWVQEKPDHLFTGLIGGTNNRAPGVPARFSGSLIGDKAALTITGAQTEDEAIYFCALWYSNHWVFGGGTKLTVL gave Average MM1.S IC50 [pM], cell kill of 5.8
